# studySystem: Human C5 (Homo sapiens)
# Construct: purchased Complement Technology
# Sequence (P01031 19-1676): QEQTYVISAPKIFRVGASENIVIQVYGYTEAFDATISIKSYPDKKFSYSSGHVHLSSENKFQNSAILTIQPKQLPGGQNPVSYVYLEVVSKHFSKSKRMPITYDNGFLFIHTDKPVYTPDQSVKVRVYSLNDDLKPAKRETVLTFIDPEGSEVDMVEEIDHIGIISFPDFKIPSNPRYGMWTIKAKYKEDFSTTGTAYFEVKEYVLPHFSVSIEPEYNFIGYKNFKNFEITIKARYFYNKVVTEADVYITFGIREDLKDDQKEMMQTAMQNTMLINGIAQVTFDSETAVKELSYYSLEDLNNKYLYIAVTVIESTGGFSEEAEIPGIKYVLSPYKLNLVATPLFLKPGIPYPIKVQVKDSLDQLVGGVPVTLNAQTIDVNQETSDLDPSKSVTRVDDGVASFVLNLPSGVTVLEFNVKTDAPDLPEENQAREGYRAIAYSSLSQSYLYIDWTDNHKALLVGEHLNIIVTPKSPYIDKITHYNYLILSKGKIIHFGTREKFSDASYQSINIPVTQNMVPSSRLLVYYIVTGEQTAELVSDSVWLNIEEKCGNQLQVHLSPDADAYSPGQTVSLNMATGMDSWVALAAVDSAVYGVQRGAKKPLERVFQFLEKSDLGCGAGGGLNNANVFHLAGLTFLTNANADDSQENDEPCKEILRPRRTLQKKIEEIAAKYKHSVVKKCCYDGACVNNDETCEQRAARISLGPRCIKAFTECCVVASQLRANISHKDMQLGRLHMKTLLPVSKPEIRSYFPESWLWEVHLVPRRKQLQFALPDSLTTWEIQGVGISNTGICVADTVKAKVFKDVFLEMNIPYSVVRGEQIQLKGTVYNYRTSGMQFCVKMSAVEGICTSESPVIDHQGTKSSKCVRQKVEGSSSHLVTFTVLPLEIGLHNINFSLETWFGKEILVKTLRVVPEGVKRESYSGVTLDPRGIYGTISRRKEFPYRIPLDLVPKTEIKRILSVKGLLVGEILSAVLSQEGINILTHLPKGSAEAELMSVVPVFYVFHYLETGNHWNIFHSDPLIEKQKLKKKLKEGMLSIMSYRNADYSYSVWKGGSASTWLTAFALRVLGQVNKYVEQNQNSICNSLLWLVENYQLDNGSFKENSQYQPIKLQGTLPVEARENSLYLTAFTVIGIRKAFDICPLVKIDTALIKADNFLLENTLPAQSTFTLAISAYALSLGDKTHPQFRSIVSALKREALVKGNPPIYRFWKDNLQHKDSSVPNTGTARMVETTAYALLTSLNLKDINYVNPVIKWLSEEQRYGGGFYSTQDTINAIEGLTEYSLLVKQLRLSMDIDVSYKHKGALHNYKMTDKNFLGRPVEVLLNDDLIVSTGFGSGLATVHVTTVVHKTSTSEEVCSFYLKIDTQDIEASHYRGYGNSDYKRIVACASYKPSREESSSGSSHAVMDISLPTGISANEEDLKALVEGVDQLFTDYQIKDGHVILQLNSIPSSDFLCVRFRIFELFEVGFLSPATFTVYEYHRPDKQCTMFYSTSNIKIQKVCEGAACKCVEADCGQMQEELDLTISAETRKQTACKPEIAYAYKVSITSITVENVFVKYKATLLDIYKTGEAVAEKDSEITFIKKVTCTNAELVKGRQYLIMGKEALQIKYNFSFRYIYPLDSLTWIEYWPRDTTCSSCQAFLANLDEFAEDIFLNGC
# assayComment: Surface plasmon resonance (SPR), immobilized human C5 (Example 9, Table 18)
# Format: binding
# experimentalConditions: immobilized human C5, equilibrium dissociation constant; read-out: SPR C5 EQ KD
valueType: Kd (nM)

compound	endpointResult
COc1ccc(NC(=O)NCc2ccc(N)nc2)cc1OCCCC(C)C	530

(A) COc1ccc(NC(=O)NCc2ccnc(N)c2OC)cc1OCCCC(C)C
(B) COc1cc(CNC(C)=O)c(NC(=O)NCc2ccnc3c2ccn3CCCN(C)C)cc1OCCCC(C)C
Inquiry: Lower Kd: A or B ? Choose, then provide that item's label.
Reply text: B
(B: 42 nM, A: 284 nM)

(I) COc1ccc(NC(=O)NCc2ncccc2OC)cc1OCCCC(C)C
(II) COc1ccc(NC(=O)NCc2ccnc(N3CCCC(O)C3)c2)cc1OCCCC(C)C (stereo not drawn)
Inquiry: Between I and II , whose measured Kd reads higher? Choose, then provide that item's label.
Reply text: I
(I: 693 nM, II: 220 nM)
